- target system: human calcium channel alpha1G-c (Homo sapiens, UniProt O43497)
- Construct: first reported cloning of a full length DNA molecule encoding the; expressed in transfected cells; host or cells: Xenopus laevis oocytes injected with cRNA transcribed from pGEM HE
- Sequence (O43497 1-2273 isoform O43497-6): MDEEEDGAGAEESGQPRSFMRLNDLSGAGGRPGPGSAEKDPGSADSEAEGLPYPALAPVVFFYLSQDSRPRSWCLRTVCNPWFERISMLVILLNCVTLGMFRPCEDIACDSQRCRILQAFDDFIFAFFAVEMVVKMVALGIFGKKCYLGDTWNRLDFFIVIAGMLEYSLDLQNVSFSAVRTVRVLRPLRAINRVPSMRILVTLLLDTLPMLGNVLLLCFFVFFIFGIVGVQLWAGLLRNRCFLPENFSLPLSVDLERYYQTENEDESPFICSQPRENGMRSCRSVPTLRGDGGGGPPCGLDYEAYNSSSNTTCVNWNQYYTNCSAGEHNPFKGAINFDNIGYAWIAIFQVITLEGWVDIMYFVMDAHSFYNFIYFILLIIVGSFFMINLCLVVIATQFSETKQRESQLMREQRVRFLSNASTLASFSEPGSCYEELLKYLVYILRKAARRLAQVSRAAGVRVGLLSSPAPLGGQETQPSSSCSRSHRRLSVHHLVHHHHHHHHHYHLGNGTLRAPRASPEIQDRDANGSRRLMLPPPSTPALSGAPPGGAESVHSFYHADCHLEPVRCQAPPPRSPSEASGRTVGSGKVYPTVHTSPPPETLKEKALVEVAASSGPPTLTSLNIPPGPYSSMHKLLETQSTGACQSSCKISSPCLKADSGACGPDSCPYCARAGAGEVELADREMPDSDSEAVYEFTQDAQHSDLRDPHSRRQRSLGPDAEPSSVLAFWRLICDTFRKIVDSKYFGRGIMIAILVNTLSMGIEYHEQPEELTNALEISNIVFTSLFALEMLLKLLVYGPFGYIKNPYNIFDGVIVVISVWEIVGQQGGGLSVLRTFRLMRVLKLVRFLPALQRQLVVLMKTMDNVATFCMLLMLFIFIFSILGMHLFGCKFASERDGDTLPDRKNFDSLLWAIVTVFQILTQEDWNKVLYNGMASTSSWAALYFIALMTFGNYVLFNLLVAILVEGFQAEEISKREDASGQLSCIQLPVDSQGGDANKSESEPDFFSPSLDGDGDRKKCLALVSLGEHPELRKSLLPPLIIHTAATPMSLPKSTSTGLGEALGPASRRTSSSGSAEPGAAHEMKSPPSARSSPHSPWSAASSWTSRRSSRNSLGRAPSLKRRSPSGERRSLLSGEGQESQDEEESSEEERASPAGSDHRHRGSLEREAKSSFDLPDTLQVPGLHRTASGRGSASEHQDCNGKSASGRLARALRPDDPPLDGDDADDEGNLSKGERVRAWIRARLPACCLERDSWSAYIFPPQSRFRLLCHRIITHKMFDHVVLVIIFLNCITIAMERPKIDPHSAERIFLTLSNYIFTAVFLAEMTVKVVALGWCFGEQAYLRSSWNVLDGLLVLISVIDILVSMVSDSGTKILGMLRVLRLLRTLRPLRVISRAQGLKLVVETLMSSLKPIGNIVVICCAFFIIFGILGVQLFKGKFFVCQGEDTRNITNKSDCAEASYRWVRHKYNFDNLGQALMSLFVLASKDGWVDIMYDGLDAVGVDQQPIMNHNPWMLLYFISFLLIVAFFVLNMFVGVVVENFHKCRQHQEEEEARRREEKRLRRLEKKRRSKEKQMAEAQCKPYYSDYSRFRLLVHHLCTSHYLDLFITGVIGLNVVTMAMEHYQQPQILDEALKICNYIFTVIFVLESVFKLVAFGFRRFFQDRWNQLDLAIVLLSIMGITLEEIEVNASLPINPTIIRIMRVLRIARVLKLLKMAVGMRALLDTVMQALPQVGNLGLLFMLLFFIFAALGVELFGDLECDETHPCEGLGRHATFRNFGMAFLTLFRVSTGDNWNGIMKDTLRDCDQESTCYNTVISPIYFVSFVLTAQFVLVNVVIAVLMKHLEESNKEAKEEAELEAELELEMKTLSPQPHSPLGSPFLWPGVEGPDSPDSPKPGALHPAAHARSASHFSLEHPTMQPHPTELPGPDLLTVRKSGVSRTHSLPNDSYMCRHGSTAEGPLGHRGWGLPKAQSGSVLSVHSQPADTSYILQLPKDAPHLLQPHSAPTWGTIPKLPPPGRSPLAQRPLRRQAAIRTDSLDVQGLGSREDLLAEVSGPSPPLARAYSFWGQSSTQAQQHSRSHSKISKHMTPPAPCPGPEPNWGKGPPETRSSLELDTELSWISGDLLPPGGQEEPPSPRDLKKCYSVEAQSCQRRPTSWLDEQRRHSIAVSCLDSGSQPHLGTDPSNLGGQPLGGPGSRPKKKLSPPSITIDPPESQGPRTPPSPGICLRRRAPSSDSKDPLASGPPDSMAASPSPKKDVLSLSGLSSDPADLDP
- assay remarks: two-electrode voltage clamp of Xenopus oocytes expressing human calcium channel alpha1G-c
- Assay type: cell-based
- cond: 100 μM
Overview of reported block of peak human alpha1G-c currents across a group of compounds:
quantity: block of peak human alpha1G-c currents

[Cd+2] :: 44+/−9%
O=S(=O)(O)c1cc(N=C=S)ccc1C=Cc1ccc(N=C=S)cc1S(=O)(=O)O :: 16+/−13%
O=C(O)c1cccnc1Nc1cccc(C(F)(F)F)c1 :: 0+/−2%
O=C(O)c1c2ccccc2cc2ccccc12 :: 30+/−3%
O=C(O)c1cc([N+](=O)[O-])ccc1NCCCc1ccccc1 :: 55+/−7%
